# target.of.assay: Iodotyrosine dehalogenase 1 (DEHAL1) (Homo sapiens, UniProt Q6PHW0)
# Construct: made in house; host or cells: HEK293 cells transfected with DEHAL1 cDNA in pcDNA3.1; used as cell lysate
# Sequence (Q6PHW0 1-289): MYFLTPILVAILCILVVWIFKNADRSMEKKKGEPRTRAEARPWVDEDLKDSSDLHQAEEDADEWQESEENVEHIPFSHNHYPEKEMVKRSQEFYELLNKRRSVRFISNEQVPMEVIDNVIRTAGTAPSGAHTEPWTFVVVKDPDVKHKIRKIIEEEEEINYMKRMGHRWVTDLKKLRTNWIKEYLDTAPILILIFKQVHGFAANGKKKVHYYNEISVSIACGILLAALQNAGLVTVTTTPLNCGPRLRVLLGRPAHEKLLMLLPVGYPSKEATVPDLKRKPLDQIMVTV
# experiment: Dehalogenation of halogenated tyrosines as substrates of DEHAL1 (HPLC)
# Type: biochemical
# experimental.context: substrate 1 μM, 60 min at 37 °C, NADPH 100 μM, dithiothreitol 10 mM
# Experimental: Iodotyrosine dehalogenase 1 (DEHAL1) was obtained from HEK293 cells transfected with DEHAL1 cDNA, using a pcDNA3.1 expression vector [9], [19]. To determine whether bromotyrosine, di-bromotyrosine or bromo-HPA interact with iodotyrosine dehalogenase, deiodinase activity was measured based on radioiodide formation from [125I]iodotyrosine. […] Substrate levels were measured using HPLC as described. […]
readout.kind: Substrate converted by DEHAL1

Check the records and state Substrate converted by DEHAL1 for N[C@@H](Cc1ccc(O)c(I)c1)C(=O)O [iodotyrosine, reference compound]
83%

Check the records and state Substrate converted by DEHAL1 for N[C@@H](Cc1cc(I)c(O)c(I)c1)C(=O)O [di-iodotyrosine, reference compound]
70%

State its Substrate converted by DEHAL1 for this compound: N[C@@H](Cc1cc(Br)c(O)c(Br)c1)C(=O)O [di-bromotyrosine, 3,5-di-bromotyrosine]
4%

// Input: N[C@@H](Cc1ccc(O)c(Br)c1)C(=O)O [bromotyrosine, 3-bromotyrosine] . Output its Substrate converted by DEHAL1 only.
18%
